study_target: 5-HT1A receptor (Rattus norvegicus, UniProt P19327)
Sequence (P19327 1-422): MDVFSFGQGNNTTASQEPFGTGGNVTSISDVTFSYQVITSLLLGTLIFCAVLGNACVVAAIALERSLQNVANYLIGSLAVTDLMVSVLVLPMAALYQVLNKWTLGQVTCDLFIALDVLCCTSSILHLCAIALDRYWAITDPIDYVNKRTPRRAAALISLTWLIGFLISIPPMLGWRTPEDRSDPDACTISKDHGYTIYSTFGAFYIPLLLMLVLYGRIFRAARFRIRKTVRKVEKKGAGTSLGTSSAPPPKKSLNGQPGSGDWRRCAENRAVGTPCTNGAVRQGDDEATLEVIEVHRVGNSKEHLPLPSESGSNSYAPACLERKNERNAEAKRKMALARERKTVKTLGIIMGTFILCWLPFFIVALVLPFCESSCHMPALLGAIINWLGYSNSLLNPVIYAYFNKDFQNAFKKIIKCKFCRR
Provide the recorded pIC50 for the entries that follow.
Give bare numbers, as −log10 of the molar value.

Some solved cases for reference:
{"columns": ["compound", "study_target", "pIC50"],
 "data": [
  ["CCCN(CCC)[C@H]1Cc2c[nH]c3ccc(C(=O)C(C)C)c(c23)C1", "5-HT1A receptor (Rattus norvegicus, UniProt P19327)", 9.80],
  ["CCCN(CCC)C1Cc2c[nH]c3ccc(C(=O)C(C)(C)C)c(c23)C1 (racemic)", "5-HT1A receptor (Rattus norvegicus, UniProt P19327)", 9.30],
  ["CCCN(CCC)[C@H]1Cc2c[nH]c3ccc(C(C)=O)c(c23)C1", "5-HT1A receptor (Rattus norvegicus, UniProt P19327)", 9.66],
  ["CCCN(CCC)[C@@H]1Cc2c[nH]c3ccc(C(C)=O)c(c23)C1", "5-HT1A receptor (Rattus norvegicus, UniProt P19327)", 9.92]
]}

Dear colleague, I am looking for the recorded pIC50 of the following compound: CCCN(CCC)C1Cc2c[nH]c3ccc(C(C)=O)c(c23)C1 (racemic)
9.70

----------
System: serotonin
assay_details: whole brain serotonin concentration in vivo in rats
Parameters: species or system rat (male albino)
stated_conditions: 0.03 mg/kg s.c., 1 hour, series 0.0003-0.03 mg/kg
readout_type: Serotonin

{"columns": ["compound", "result"],
 "data": [
  ["CCCN(CCC)[C@H]1Cc2c[nH]c3ccc(C(=O)C(C)C)c(c23)C1", "3.08 ± 0.11 nmol/g"],
  ["CCCN(CCC)[C@H]1Cc2c[nH]c3ccc(C(C)=O)c(c23)C1", "3.00 ± 0.10 nmol/g"],
  ["CCCN(CCC)[C@@H]1Cc2c[nH]c3ccc(C(C)=O)c(c23)C1", "3.30 ± 0.09 nmol/g"]
]}

Turning now to a further compound:
Dear colleague, I am looking for the recorded Serotonin of the following compound: CCCN(CCC)C1Cc2c[nH]c3ccc(C(C)=O)c(c23)C1 (racemic)
3.23 ± 0.11 nmol/g

----------
Test system: serum corticosterone
assay_details: serum corticosterone concentration in vivo in rats
Parameters: species or system rat (male albino)
stated_conditions: 0.03 mg/kg s.c., 1 hour; series 0.03-3 mg/kg
Returns yes if the recorded Serum Corticosterone is greater than or equal to 8 microg./100 ml, and no otherwise.

Field: example entries. Status: answers known.
{"columns": ["compound", "class_label"],
 "data": [
  ["CCCN(CCC)[C@H]1Cc2c[nH]c3ccc(C(=O)C(C)C)c(c23)C1", "no"],
  ["CCCN(CCC)[C@H]1Cc2c[nH]c3ccc(C(C)=O)c(c23)C1", "yes"],
  ["CCCN(CCC)C1Cc2c[nH]c3ccc(C(C)=O)c(c23)C1 (racemic)", "yes"]
]}

Consider the record given below.
Record `CCCN(CCC)[C@@H]1Cc2c[nH]c3ccc(C(C)=O)c(c23)C1` ; criterion: Serum Corticosterone no lower than 8 microg./100 ml. Met?
yes
